Provide the reported GI50 of each item.
- Test system: HT-29
- assayText: Growth inhibition of human HT-29 cells after 72 hrs by MTS-PMS assay
- Assay type: functional
- cond: HT-29, 72 h
Entry rule: numbers only, all in µM.

The measured GI50 associated with `C[C@H](COC(=O)c1ccc2ccccc2c1)[C@H]1CC[C@H]2[C@@H](O)CCC[C@]12C` reads 19.8

The measured GI50 associated with `C[C@H](COC(=O)c1ccc(Cl)cc1)[C@H]1CC[C@H]2[C@@H](O)CCC[C@]12C` reads 15.9

The measured GI50 associated with `C[C@H](COC(=O)C1CCC1)[C@H]1CC[C@H]2[C@@H](O)CCC[C@]12C` reads 27

The measured GI50 associated with `C[C@H](CNC(=O)c1ccccc1O)[C@H]1CC[C@H]2[C@@H](O)CCC[C@]12C` reads 68.2

The measured GI50 associated with `CC(C)CC(=O)OC[C@@H](C)[C@H]1CC[C@H]2[C@@H](O)CCC[C@]12C` reads 47.5

The measured GI50 associated with `C[C@H](COC(=O)c1ccc(O)cc1)[C@H]1CC[C@H]2[C@@H](O)CCC[C@]12C` reads 41

The measured GI50 associated with `C[C@H](COC(=O)c1cccc(O)c1)[C@H]1CC[C@H]2[C@@H](O)CCC[C@]12C` reads 70.3

The measured GI50 associated with C=C1CC[C@H](O)C/C1=C/C=C1\CCC[C@]2(C)[C@@H]([C@H](C)CCCC(C)C)CC[C@@H]12 [CHOLECALCIFEROL] reads 53.8
